assay: chemical genetic growth profiling, strain panel (AID 1159580);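 further: tested at 20 µM; growth read once vehicle control cultures reached saturation at 30 °C; 1 = growth at the plate median or of vehicle wells; lower values mean less growth of the strain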; settings: S. cerevisiae deletion strains, growth OD, locus YLR330W, strain CHS5, hits give low values
The whole screen tested about 5,500 compounds, of which about 2,000 (36%) were called active. Inconclusive results (about 18%) are left out. This is one part of the list.
Experimental Endpoint: normalized growth
The reply should be a number, written without any unit.

Below: 3 molecules and their reported normalized growth.
Molecule	normalized growth
CC(C)=CCCC1(C)C=Cc2c(O)c3c(c(CC=C(C)C)c2O1)OC12C(=CC4CC1C(C)(C)OC2(C/C=C(/C)C(=O)O)C4O)C3=O (stereo unspecified)	0.991
Cc1cc(O)cc(=O)o1	0.99
Cc1ccc(S(=O)(=O)NC(=O)NN2CC3CCCC3C2)cc1 (stereo unspecified)	1

input: Report normalized growth for Cc1cc(O)cc(C)c1Cl please.
output: 0.994

input: Param item: CC(C)=CCCC1(C)C=Cc2c(O)c3c(c(CC=C(C)C)c2O1)OC12C(CC4CC1C(C)(C)OC2(C/C=C(/C)C(=O)O)C4O)C3=O (stereo unspecified)
output: 1.01

input: Would you mind doing N[C@H](C(=O)O)[C@@H]1CC(Cl)=NO1 as well?
output: 0.388

###

experiment: chemical genetic growth profiling, strain panel (AID 1159580);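 further: tested at 20 µM; growth read once vehicle control cultures reached saturation at 30 °C; 1 = growth at the plate median or of vehicle wells; lower values mean less growth of the strain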; conditions: S. cerevisiae deletion strains, growth OD, locus YLR262C, strain YPT6 (second series)
The whole screen tested about 5,500 compounds, of which about 2,000 (36%) were called active. About 18% were inconclusive and are not listed. No stated cut-off is given here; in the data, active means normalized growth mostly below about 0.91 (no sharp cut-off); inconclusive means no clear call, values can overlap the other calls; inactive means mostly above about 0.92. Some of the results follow.
The categories you may choose from are active, inactive

Known results for compounds:
Compound	Class Label
COc1ccc2c(c1)c(CC(=O)OCC(=O)O)c(C)n2C(=O)c1ccc(Cl)cc1	inactive
Cc1cc(C(C)(C)C)c(O)c(C(C)(C)C)c1	inactive
CC(=O)O[C@H]1CC[C@@]2(C)C(CC[C@]3(C)C2CC=C2C4CC(C)(C)CC[C@]4(C)CC[C@]23C)C1(C)C (some centres not stated)	inactive

input: Please share the test call associated with C/C=C(/C)C(=O)O[C@@H]1[C@H](OC(C)=O)[C@@]2(CO)C(CC1(C)C)C1=CCC3[C@@]4(C)CC[C@H](O[C@@H]5O[C@H](C(=O)O)[C@@H](O[C@@H]6O[C@H](CO)[C@@H](O)[C@H](O)[C@H]6O)[C@H](O)[C@H]5O[C@@H]5O[C@H](CO)[C@@H](O)[C@H](O)[C@H]5O)[C@](C)(CO)C4CC[C@@]3(C)[C@]1(C)C[C@H]2O (some centres not stated) .
output: inactive

input: Same lookup for CC1(C)CC[C@]2(C(=O)O)CC[C@]3(C)C(=CCC4[C@@]5(C)CC[C@H](O)[C@@](C)(CO)C5CC[C@]43C)C2C1 (some centres not stated) , please.
output: inactive

input: Now give it for CCC(C)C(=O)O[C@H]1[C@H](O)C2C(CN3CC(C)CCC3[C@@]2(C)O)C2C[C@]34O[C@]5(O)C(OC(=O)C(C)(O)CC)CC[C@@]3(C)C5C(OC(C)=O)[C@@H](OC(C)=O)C4[C@@]21O (some centres not stated) too.
output: inactive

input: Lookup Nc1ccc(S(=O)(=O)Nc2cnc3ccccc3n2)cc1
output: inactive

input: Follow-up item: COC(=O)Nc1nc2ccc(Sc3ccccc3)cc2[nH]1
output: inactive

input: Queued: COC(=O)Nc1nc2ccc(C(=O)c3ccccc3)cc2[nH]1
output: active

input: Entry to check: COC(=O)C[C@H]1C(C)(C)C2(O)OC34CC2C(=O)[C@]1(C)C3CC[C@]1(C)C4=CC(=O)O[C@H]1c1ccoc1 (some centres not stated)
output: inactive
